- tested.system: ATP-dependent translocase ABCB1 (Homo sapiens, UniProt P08183)
- Sequence (P08183 whole entry): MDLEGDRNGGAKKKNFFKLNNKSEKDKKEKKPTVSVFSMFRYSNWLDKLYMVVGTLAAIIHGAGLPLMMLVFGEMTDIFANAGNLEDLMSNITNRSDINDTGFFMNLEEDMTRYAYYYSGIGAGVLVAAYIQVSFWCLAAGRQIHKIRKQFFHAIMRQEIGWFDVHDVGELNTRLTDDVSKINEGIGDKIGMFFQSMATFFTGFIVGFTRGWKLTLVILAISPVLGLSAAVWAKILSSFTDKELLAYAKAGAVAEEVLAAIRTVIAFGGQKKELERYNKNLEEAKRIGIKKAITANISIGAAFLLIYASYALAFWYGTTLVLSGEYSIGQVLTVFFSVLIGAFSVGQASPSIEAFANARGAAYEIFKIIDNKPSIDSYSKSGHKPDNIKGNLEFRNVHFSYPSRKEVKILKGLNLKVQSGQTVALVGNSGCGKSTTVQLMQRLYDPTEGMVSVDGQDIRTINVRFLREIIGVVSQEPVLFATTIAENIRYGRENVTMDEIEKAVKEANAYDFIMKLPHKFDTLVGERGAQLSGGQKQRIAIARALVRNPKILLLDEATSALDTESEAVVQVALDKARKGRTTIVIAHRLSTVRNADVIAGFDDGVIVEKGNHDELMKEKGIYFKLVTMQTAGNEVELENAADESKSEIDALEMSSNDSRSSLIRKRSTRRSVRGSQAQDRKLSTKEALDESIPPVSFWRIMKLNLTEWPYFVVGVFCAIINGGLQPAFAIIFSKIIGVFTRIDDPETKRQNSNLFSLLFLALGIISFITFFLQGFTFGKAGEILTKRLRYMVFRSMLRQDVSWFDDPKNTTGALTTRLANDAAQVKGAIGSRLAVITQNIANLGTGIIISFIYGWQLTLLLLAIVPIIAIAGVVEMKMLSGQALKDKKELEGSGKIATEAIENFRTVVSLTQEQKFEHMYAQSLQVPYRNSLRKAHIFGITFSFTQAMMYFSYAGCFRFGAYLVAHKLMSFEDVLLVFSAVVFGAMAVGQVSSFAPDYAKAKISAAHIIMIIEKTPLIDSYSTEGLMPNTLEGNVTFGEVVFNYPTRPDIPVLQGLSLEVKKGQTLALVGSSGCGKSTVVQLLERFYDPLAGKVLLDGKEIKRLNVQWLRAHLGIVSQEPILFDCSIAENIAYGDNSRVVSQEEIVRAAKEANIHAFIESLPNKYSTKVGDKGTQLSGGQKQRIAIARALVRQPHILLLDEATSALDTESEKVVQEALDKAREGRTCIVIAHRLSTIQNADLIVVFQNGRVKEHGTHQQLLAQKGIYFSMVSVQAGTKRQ
- run.description: TP_TRANSPORTER: inhibition of Daunorubicin transepithelial transport (basal to apical) (Daunorubicin: 0.1 uM) in MDR1-expressing LLC-PK1 cells
readout.name: pIC50
Expect pIC50 as a plain number equal to -log10 of the molar concentration.

### Prompt Look up pIC50 for this compound: COc1ccc2cc1Oc1cccc(c1)C[C@H]1c3c(cc4c(c3Oc3cc5c(cc3OC)CCN(C)[C@@H]5C2)OCO4)CCN1C [CEPHARANTHIN]
### Response 5.69
